FYI, the data here is from ChEMBL document CHEMBL3808315.

In this section we review reported IC50 values for a set of compounds.
- experimentalTarget: DNA topoisomerase 4 subunit B (Staphylococcus aureus, UniProt P0C1S7)
- methodSummary: Inhibition of Staphylococcus aureus DNA parE ATPase activity incubated for 30 mins by fluorescence polarization assay
endpoint: IC50 (nM)

CCn1c(=O)ccc2c(-c3cnc(-c4cccnc4)s3)n[nH]c21 | 746
CCCn1c(=O)ccc2c(-c3cnc(-c4cccnc4)s3)n[nH]c21 | 183

###

The following molecules are shown together with reported log10(MIC) values.
- Tested on: Staphylococcus aureus
- methodSummary: Antibacterial activity against methicillin-susceptible Staphylococcus aureus 42 incubated for 18 to 24 hrs by broth microdilution assay
- Assay type: functional
endpoint: log10(MIC) (log10 of the value in µg/mL)

CCCn1c(=O)ccc2c(-c3cnc(-c4ccc(C(=O)OC)nc4)s3)n[nH]c21 | -0.30
CCCn1c(=O)ccc2c(-c3cnc(-c4ccc(CN(CC)CC)nc4)s3)n[nH]c21 | 0.60
CCCn1c(=O)ccc2c(-c3cnc(-c4ccc(N5CCN(C)CC5)nc4)s3)n[nH]c21 | 0.30
CCCn1c(=O)ccc2c(-c3ncc(-c4cccnc4)s3)n[nH]c21 | 0.60
CCCn1c(=O)ccc2c(-c3cnc(-c4ccc(N(C)C)nc4)s3)n[nH]c21 | -0.30
COc1c(N2C[C@@H]3CCCN[C@@H]3C2)c(F)cc2c(=O)c(C(=O)O)cn(C3CC3)c12 [MOXIFLOXACIN] | -1.22
CCCn1c(=O)ccc2c(-c3cnc(-c4ccc(C(=O)NCCN5CCOCC5)nc4)s3)n[nH]c21 | 0.30
CCCn1c(=O)ccc2c(-c3cnc(-c4ccc(C(=O)NCCN(CC)CC)nc4)s3)n[nH]c21 | 0.00
CCCn1c(=O)ccc2c(-c3nc(C(=O)N(C)C)c(-c4cccnc4)s3)n[nH]c21 | 0.60
CCn1c(=O)ccc2c(-c3cnc(-c4cccnc4)s3)n[nH]c21 | 0.30
CCCn1c(=O)ccc2c(-c3cnc(-c4ccc(CN5CCOCC5)nc4)s3)n[nH]c21 | -0.30
CCCn1c(=O)ccc2c(-c3cnc(-c4ccc(CN5CCN(C)CC5)nc4)s3)n[nH]c21 | 0.60
C=CCn1c(=O)ccc2c(-c3cnc(-c4cccnc4)s3)n[nH]c21 | -0.60
CCCn1c(=O)ccc2c(-c3cnc(-c4ccc(C(=O)N(C)C)nc4)s3)n[nH]c21 | 0.30
CCn1c(=O)c(C)cc2c(-c3cnc(-c4cccnc4)s3)n[nH]c21 | 0.30

###

- experimentalTarget: DNA gyrase subunit B (Staphylococcus aureus, UniProt P0A0K8)
- methodSummary: Inhibition of Staphylococcus aureus DNA gyraseB ATPase activity using linear pBR322 DNA substrate incubated for 30 mins by fluorescence polarization assay
Below, each entry is listed with its recorded log10 IC50.
endpoint: log10 IC50 (log10 of the value in nM)

CCn1c(=O)c(C(=O)NC)cc2c(-c3cnc(-c4cccnc4)s3)n[nH]c21 | 3.53
CCCn1c(=O)ccc2c(-c3cnc(-c4cccnc4)s3)n[nH]c21 | 0.78
CCCn1c(=O)ccc2c(-c3cnc(-c4ccc(N(C)C)nc4)s3)n[nH]c21 | 1.18
O=c1ccc2c(-c3cnc(-c4cccnc4)s3)n[nH]c2[nH]1 | 2.43
O=c1cc(-c2ccccc2)c2c(-c3cnc(-c4cccnc4)s3)n[nH]c2[nH]1 | 3.12
CCCn1c(=O)ccc2c(C3CCN(c4nc(C(=O)O)c(C)s4)CC3)n[nH]c21 | 2.28
CCCn1c(=O)ccc2c(-c3cnc(-c4ccc(C(=O)NCCN5CCOCC5)nc4)s3)n[nH]c21 | 1.11
Cc1cc(=O)[nH]c2[nH]nc(-c3cnc(-c4cccnc4)s3)c12 | 3.51
CCCn1c(=O)ccc2c(-c3cnc(-c4ccc(CN5CCN(C)CC5)nc4)s3)n[nH]c21 | 1.00
C=CCn1c(=O)ccc2c(-c3cnc(-c4cccnc4)s3)n[nH]c21 | 0.60
Cn1c(=O)ccc2c(-c3cnc(-c4cccnc4)s3)n[nH]c21 | 1.71
CCCn1c(=O)ccc2c(-c3cnc(-c4ccc(CN(CC)CC)nc4)s3)n[nH]c21 | 0.95
CCCn1c(=O)ccc2c(-c3cnc(-c4ccc(N5CCN(C)CC5)nc4)s3)n[nH]c21 | 0.90
O=c1ccc2c(-c3cnc(-c4cccnc4)s3)n[nH]c2n1CCO | 2.75
CCCn1c(=O)ccc2c(-c3cnc(-c4ccc(C(=O)OC)nc4)s3)n[nH]c21 | 1.18
CCCn1c(=O)ccc2c(-c3cnc(-c4ccc(C(C)C)nc4)s3)n[nH]c21 | 1.36
CCn1c(=O)ccc2c(-c3cnc(-c4cccnc4)s3)n[nH]c21 | 1.30
CCCn1c(=O)ccc2c(-c3cncs3)n[nH]c21 | 2.45
CCCn1c(=O)ccc2c(-c3ncc(-c4cccnc4)s3)n[nH]c21 | 0.95
CCCn1c(=O)ccc2c(-c3nc(C(=O)N(C)C)c(-c4cccnc4)s3)n[nH]c21 | 1.11
CCn1c(=O)c(CO)cc2c(-c3cnc(-c4cccnc4)s3)n[nH]c21 | 2.31
CCn1c(=O)c(C)cc2c(-c3cnc(-c4cccnc4)s3)n[nH]c21 | 1.54
CCCn1c(=O)ccc2c(-c3cnc(-c4ccc(C(=O)N(C)C)nc4)s3)n[nH]c21 | 0.90
CCCn1c(=O)ccc2c(-c3nc(C(=O)OC)c(-c4cccnc4)s3)n[nH]c21 | 0.78
